- Tested on: MDA-MB231 cells
- procedure-text: in vitro inhibition of cell proliferation / survival assay
- Format: cell-based
- conditions: Homo sapiens, MDA-MB-231, 48 h, average of three assays, standard error ± 0.5 μM
measurement-label: log10 of IC50 (log10 of the value in µM)
Give log10 of IC50, with IC50 taken in µM.

Worked cases, log10 of IC50 given:
>  <molecule>
O=C1/C(=C/c2ccc3c(c2)OCCO3)SC(=S)N1CCCCNCc1ccc2c(c1)OCO2

>  <measurement-label>
log10 of IC50

>  <val>
0.95

$$$$
>  <molecule>
COc1cccc2c1C(=O)c1c(O)c3c(c(O)c1C2=O)C[C@@](O)(C(=O)CO)C[C@@H]3O[C@H]1C[C@H](N)[C@H](O)[C@H](C)O1 [Doxorubicine, reference compound]

>  <measurement-label>
log10 of IC50

>  <val>
-2.00

$$$$
>  <molecule>
O=C1/C(=C/c2ccc3c(c2)OCO3)SC(=S)N1CCCCNCc1ccc2c(c1)OCO2

>  <measurement-label>
log10 of IC50

>  <val>
1.00

$$$$
>  <molecule>
COc1ccc(CNCCCCN2C(=O)/C(=C/c3ccc(O)c(OC)c3)SC2=S)cc1

>  <measurement-label>
log10 of IC50

>  <val>
1.04

$$$$
>  <molecule>
O=C1/C(=C/c2ccc(O)cc2)SC(=S)N1CCCCNCc1ccc2c(c1)OCO2

>  <measurement-label>
log10 of IC50

>  <val>
1.28

$$$$
>  <molecule>
COc1cc(/C=C2\SC(=S)N(CCCCNCc3ccc4c(c3)OCCO4)C2=O)ccc1O

>  <measurement-label>
log10 of IC50

>  <val>
1.18

$$$$

# next molecule below
Ask: Provide only the value of recorded log10 of IC50 for CC(=O)O[C@H]1C(=O)[C@@]2(C)[C@H]([C@H](OC(=O)c3ccccc3)[C@]3(O)C[C@H](OC(=O)[C@H](O)[C@@H](NC(=O)c4ccccc4)c4ccccc4)C(C)=C1C3(C)C)[C@]1(OC(C)=O)CO[C@@H]1C[C@@H]2O [Taxol, reference compound]
Result: -1.40
